Field: pKi. Provide a value for each of the binders that follow.
Biological target: T1, human SNORF62 receptor (human, UniProt Q9HB89 1-426)
T1 construct: also called hSNORF62; NMU receptor
T1 sequence: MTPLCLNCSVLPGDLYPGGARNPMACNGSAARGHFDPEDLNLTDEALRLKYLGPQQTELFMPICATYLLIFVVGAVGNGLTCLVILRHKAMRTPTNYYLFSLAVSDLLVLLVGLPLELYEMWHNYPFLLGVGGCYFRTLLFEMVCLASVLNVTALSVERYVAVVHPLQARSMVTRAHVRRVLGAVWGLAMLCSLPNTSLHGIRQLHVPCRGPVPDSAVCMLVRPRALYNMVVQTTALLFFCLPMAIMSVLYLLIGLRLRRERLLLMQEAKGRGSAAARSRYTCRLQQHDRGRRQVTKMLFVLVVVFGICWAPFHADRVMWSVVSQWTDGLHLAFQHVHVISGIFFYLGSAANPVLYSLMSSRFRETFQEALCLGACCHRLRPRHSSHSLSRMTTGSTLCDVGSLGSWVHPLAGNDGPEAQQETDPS
Assay: displacement of [125I]rat NMU-23 (0.05-0.1 nM), membranes of SNORF62-transfected COS-7 cells, n=2
No end group written: not given here.
One number for each entry.

Example results:
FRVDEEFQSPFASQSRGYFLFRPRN-NH2 (also called human neuromedin U-25) [human NMU-25] :: 8.7
FKVDEEFQGPIVSQNRRYFLFRPRN-NH2 (also called porcine neuromedin U-25) [porcine NMU-25] :: 9

[Q] I would be grateful if you could share the reported pKi for YKVNEYQGPVAPSGGFFLFRPRN-NH2 (also called rat neuromedin U-23) [rat NMU-23] .
[A] 9.4
